assay: Tmax in CD1 mouse at 9.354 mg/kg administered via oral gavage by LC-MS/MS method; assay type: ADME, organism-based; conditions: in vivo
MEASURE: Tmax (h)
Only the number, expressed in h, is required.

Qu. Please indicate Tmax recorded for Cc1[nH]c(C)c(-c2ccc(-c3cccc(C(F)(F)F)c3)nc2)c(=O)c1Cl
Ans. 3

###

assay: AUC (infinity) in CD1 mouse at 8.366 mg/kg administered via oral gavage by LC-MS/MS method; type: ADME, organism-based; design: dose 8.366 mg/kg, route oral, time infinity; details: in vivo
MEASURE: AUC(0-inf)

Qu. Please indicate AUC(0-inf) recorded for Cc1[nH]c(C)c(-c2ccc(-c3ccc(C(F)(F)F)cc3Cl)nc2)c(=O)c1Cl
Ans. 37500 ng·h/mL

###

test: Cmax in CD1 mouse at 9.354 mg/kg administered via oral gavage by LC-MS/MS method; type: ADME, organism-based; parameters: dose 9.354 mg/kg, route oral; conditions: in vivo
MEASURE: Cmax

Qu. Please indicate Cmax recorded for Cc1[nH]c(C)c(-c2ccc(-c3cccc(C(F)(F)F)c3)nc2)c(=O)c1Cl
Ans. 2470 ng/mL

###

experiment: AUC (infinity) in CD1 mouse at 9.354 mg/kg administered via oral gavage by LC-MS/MS method; assay type: ADME, organism-based; set-up: dose 9.354 mg/kg, route oral, time infinity; settings: in vivo
MEASURE: AUC(0-inf) (ng·h/mL)
Only the number, expressed in ng·h/mL, is required.

Qu. Please indicate AUC(0-inf) recorded for Cc1[nH]c(C)c(-c2ccc(-c3cccc(C(F)(F)F)c3)nc2)c(=O)c1Cl
Ans. 39500

###

assay: Half life in CD1 mouse at 0.195 mg/kg, iv as bolus dose by LC-MS/MS method; type: ADME, organism-based; conditions: in vivo
MEASURE: half-life (h)
Only the number, expressed in h, is required.

Qu. Please indicate half-life recorded for Cc1[nH]c(C)c(-c2ccc(-c3cccc(C(F)(F)F)c3)nc2)c(=O)c1Cl
Ans. 5.13

###

assay: AUC (0 to t) in CD1 mouse at 8.366 mg/kg administered via oral gavage by LC-MS/MS method; assay type: ADME, organism-based; details: in vivo
MEASURE: AUC(0-t) (ng·h/mL)
Only the number, expressed in ng·h/mL, is required.

Qu. Please indicate AUC(0-t) recorded for Cc1[nH]c(C)c(-c2ccc(-c3ccc(C(F)(F)F)cc3Cl)nc2)c(=O)c1Cl
Ans. 37400

###

test: Volume of distribution in CD1 mouse at 0.211 mg/kg, iv as bolus dose by LC-MS/MS method; type: ADME, organism-based; conditions: in vivo
MEASURE: Vd (L/kg)
Only the number, expressed in L/kg, is required.

Qu. Please indicate Vd recorded for Cc1[nH]c(C)c(-c2ccc(-c3ccc(C(F)(F)F)cc3Cl)nc2)c(=O)c1Cl
Ans. 1.24

###

experiment: Clearance in CD1 mouse at […], iv as bolus dose by LC-MS/MS method; assay type: ADME, organism-based; settings: in vivo
Recorded clearance, one value per entry.
Only the number, expressed in mL/min/kg, is required.

# SMILES_TEXT, OBSERVED_VALUE
rows = [
    ("Cc1[nH]c(C)c(-c2ccc(-c3ccc(C(F)(F)F)cc3F)nc2)c(=O)c1Cl", 0.26),
]

Qu. Please indicate clearance recorded for Cc1[nH]c(C)c(-c2ccc(OCc3ccc(OC(F)(F)F)cc3)nc2)c(=O)c1Cl
Ans. 2.74

###

experiment: Clearance in CD1 mouse at 0.17 mg/kg, iv as bolus dose by LC-MS/MS method; type: ADME, organism-based; settings: in vivo
MEASURE: clearance (mL/min/kg)
Only the number, expressed in mL/min/kg, is required.

Qu. Please indicate clearance recorded for Cc1[nH]c(C)c(-c2ccc(-c3ccc(OC(F)(F)F)cc3)nc2)c(=O)c1Cl
Ans. 0.53

###

assay: Volume of distribution in CD1 mouse at 1.45 mg/kg, iv as bolus dose by LC-MS/MS method; assay type: ADME, organism-based; details: in vivo
MEASURE: Vd
Returns: string containing the numeric result and its unit.

Qu. Please indicate Vd recorded for Cc1[nH]c(CO)c(-c2ccc(-c3ccc(OC(F)(F)F)cc3)nc2)c(=O)c1Cl
Ans. 1.11 L/kg

###

molecular target: serum albumin (Homo sapiens, UniProt P02768); assay: Binding affinity to human serum albumin by HPLC method; format: ADME; details: read-out: PB (converted)
Sequence (P02768 whole entry): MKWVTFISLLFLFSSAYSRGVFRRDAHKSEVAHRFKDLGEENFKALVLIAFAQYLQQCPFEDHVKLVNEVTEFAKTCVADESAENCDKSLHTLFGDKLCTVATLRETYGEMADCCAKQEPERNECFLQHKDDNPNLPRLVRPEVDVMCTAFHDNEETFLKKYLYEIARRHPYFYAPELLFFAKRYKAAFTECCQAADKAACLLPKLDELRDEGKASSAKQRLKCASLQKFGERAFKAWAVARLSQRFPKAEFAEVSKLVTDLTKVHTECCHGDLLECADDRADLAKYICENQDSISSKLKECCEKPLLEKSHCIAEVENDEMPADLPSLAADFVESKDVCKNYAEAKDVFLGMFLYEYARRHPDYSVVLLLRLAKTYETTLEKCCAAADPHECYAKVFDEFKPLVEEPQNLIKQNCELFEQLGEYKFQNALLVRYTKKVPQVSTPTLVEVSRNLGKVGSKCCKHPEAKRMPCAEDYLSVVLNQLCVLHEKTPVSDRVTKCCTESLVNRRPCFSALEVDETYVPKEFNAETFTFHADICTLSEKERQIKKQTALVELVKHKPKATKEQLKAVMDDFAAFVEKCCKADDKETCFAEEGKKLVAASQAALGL
MEASURE: fraction unbound
Field format: numeric only.

# SMILES_TEXT, TARGET_OR_TEST_SYSTEM, fraction unbound
rows = [
    ("Cc1[nH]c(CO)c(-c2ccc(-c3ccc(OC(F)(F)F)cc3)nc2)c(=O)c1Cl", "serum albumin (Homo sapiens, UniProt P02768)", 0.05),
    ("Cc1[nH]c(CO)c(-c2ccc(-c3ccc(C(F)(F)F)cc3F)nc2)c(=O)c1Cl", "serum albumin (Homo sapiens, UniProt P02768)", 0.06),
]

Qu. Please indicate fraction unbound recorded for Cc1[nH]c(C)c(-c2ccc(-c3ccc(C(F)(F)F)cc3F)nc2)c(=O)c1Cl
Ans. 0.05

Qu. Please indicate fraction unbound recorded for Cc1[nH]c(C)c(-c2ccc(-c3ccc(C(F)(F)F)cc3Cl)nc2)c(=O)c1Cl
Ans. 0.05
